Relative Binding Affinity (ratio to native VEGF (8-109)) reference
- system: T1, KDR (1-3) monomer (UniProt P35968 20-327, limits assumed, biotin-labeled in the ELISA of Example 8)
- T1 construct: domain: domains 1 to 3; Genentech reagent; also called domains 1 to 3 of KDR
- T1 sequence (P35968 20-327 limits assumed): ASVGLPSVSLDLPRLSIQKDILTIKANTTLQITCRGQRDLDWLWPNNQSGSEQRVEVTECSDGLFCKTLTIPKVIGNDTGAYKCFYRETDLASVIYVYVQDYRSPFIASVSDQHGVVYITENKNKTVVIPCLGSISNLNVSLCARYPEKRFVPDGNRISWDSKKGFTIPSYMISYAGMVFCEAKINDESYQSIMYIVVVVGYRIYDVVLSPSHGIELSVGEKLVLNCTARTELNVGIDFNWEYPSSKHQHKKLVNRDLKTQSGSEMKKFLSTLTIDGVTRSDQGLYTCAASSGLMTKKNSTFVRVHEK
- experiment: competition ELISA vs biotinylated VEGF (8-109), soluble KDR (1-3) captured by MAKD5
quantity kind: Relative Binding Affinity (ratio to native VEGF (8-109)) (fold)

[
  {
    "binder": "LK-VRB-6s (ligand, human, UniProt P15692-4 27-135, looked up) APMAEGGGQNHHEVVKFMDVYQRSYCHPIETLVDIFQEYPDEIEYIFKPSCVPLMRCGGCCNSEATECVPTEESNITMQIMRIKPHQGQHIGEMSFLQHNKCECRPKKD",
    "units text": "fold",
    "result number": 0.5
  },
  {
    "binder": "LK-VRB-15s (ligand, human, UniProt P15692-4 27-135, looked up) APMAEGGGQNHHEVVKFMDVLQRSSCHPIETLVDIFQEYPDEIEYIFKPSCVPLMRCGGCCNSEMRECVPTEESNITMQIMRIKPHQGQHIGEMSFLQHNKCECRPKKD",
    "units text": "fold",
    "result number": 2
  },
  {
    "binder": "LK-VRB-4s (ligand, human, UniProt P15692-4 27-135, looked up) APMAEGGGQNHHEVVKIEDVFERSICHPIETLVDIFQEYPDEIEYIFKPSCVPLMRCGGCCNDEGLECVPTEESNITMQIMRIKPHQGQHIGEMSFLQHNKCECRPKKD",
    "units text": "fold",
    "result number": 1
  },
  {
    "binder": "LK-VRB-8s* (ligand) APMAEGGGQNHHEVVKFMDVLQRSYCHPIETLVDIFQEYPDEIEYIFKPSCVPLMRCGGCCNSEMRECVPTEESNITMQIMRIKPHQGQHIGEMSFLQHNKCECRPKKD",
    "units text": "fold",
    "result number": 0.5
  },
  {
    "binder": "LK-VRB-24s (ligand, human, UniProt P15692-4 27-135, looked up) APMAEGGGQNHHEVVKFEDVLRRSSCHPIETLVDIFQEYPDEIEYIFKPSCVPLMRCGGCCNSEMLECVPTEESNITMQIMRIKPHQGQHIGEMSFLQHNKCECRPKKD",
    "units text": "fold",
    "result number": 10
  },
  {
    "binder": "LK-VRB-5s (ligand, human, UniProt P15692-4 27-135, looked up) APMAEGGGQNHHEVVKFMDVYQRSYCHPIETLVDIFQEYPDEIEYIFKPSCVPLMRCGGCCNSEGRECVPTEESNITMQIMRIKPHQGQHIGEMSFLQHNKCECRPKKD",
    "units text": "fold",
    "result number": 1
  },
  {
    "binder": "LK-VRB-11s (ligand, human, UniProt P15692-4 27-135, looked up) APMAEGGGQNHHEVVKFEDVLQRSYCHPIETLVDIFQEYPDEIEYIFKPSCVPLMRCGGCCNSEMRECVPTEESNITMQIMRIKPHQGQHIGEMSFLQHNKCECRPKKD",
    "units text": "fold",
    "result number": 2
  },
  {
    "binder": "LK-VRB-12s (ligand, human, UniProt P15692-4 27-135, looked up) APMAEGGGQNHHEVVKFEDVYRRSYCHPIETLVDIFQEYPDEIEYIFKPSCVPLMRCGGCCNSEMRECVPTEESNITMQIMRIKPHQGQHIGEMSFLQHNKCECRPKKD",
    "units text": "fold",
    "result number": 0.4
  },
  {
    "binder": "LK-VRB-17s (ligand, human, UniProt P15692-4 27-135, looked up) APMAEGGGQNHHEVVKFEDVLRRSYCHPIETLVDIFQEYPDEIEYIFKPSCVPLMRCGGCCNSEMRECVPTEESNITMQIMRIKPHQGQHIGEMSFLQHNKCECRPKKD",
    "units text": "fold",
    "result number": 3
  },
  {
    "binder": "LK-VRB-9s (ligand, human, UniProt P15692-4 27-135, looked up) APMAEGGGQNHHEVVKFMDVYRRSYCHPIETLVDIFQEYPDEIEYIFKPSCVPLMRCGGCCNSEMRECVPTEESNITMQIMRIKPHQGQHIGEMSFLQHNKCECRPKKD",
    "units text": "fold",
    "result number": 0.5
  },
  {
    "binder": "LK-VRB-13s (ligand, human, UniProt P15692-4 27-135, looked up) APMAEGGGQNHHEVVKFEDVYQRSSCHPIETLVDIFQEYPDEIEYIFKPSCVPLMRCGGCCNSEMRECVPTEESNITMQIMRIKPHQGQHIGEMSFLQHNKCECRPKKD",
    "units text": "fold",
    "result number": 14
  },
  {
    "binder": "LK-VRB-1s* (ligand, human, UniProt P15692-4 27-135, looked up) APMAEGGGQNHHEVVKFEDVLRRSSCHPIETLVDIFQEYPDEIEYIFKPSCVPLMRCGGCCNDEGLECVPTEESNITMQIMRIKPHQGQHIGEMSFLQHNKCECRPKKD",
    "units text": "fold",
    "result number": 1
  },
  {
    "binder": "LK-VRB-3s (ligand, human, UniProt P15692-4 27-135, looked up) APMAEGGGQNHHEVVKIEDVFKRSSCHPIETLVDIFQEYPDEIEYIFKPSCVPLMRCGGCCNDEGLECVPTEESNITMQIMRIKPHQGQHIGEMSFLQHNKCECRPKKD",
    "units text": "fold",
    "result number": 1
  },
  {
    "binder": "LK-VRB-23s (ligand, human, UniProt P15692-4 27-135, looked up) APMAEGGGQNHHEVVKFEDVLRRSSCHPIETLVDIFQEYPDEIEYIFKPSCVPLMRCGGCCNDEGRECVPTEESNITMQIMRIKPHQGQHIGEMSFLQHNKCECRPKKD",
    "units text": "fold",
    "result number": 11
  },
  {
    "binder": "LK-VRB-16s (ligand, human, UniProt P15692-4 27-135, looked up) APMAEGGGQNHHEVVKFMDVYRRSSCHPIETLVDIFQEYPDEIEYIFKPSCVPLMRCGGCCNSEMRECVPTEESNITMQIMRIKPHQGQHIGEMSFLQHNKCECRPKKD",
    "units text": "fold",
    "result number": 0.6
  },
  {
    "binder": "LK-VRB-19s (ligand, human, UniProt P15692-4 27-135, looked up, one of the two is probably misprinted) APMAEGGGQNHHEVVKFEDVYRRSSCHPIETLVDIFQEYPDEIEYIFKPSCVPLMRCGGCCNSEMRECVPTEESNITMQIMRIKPHQGQHIGEMSFLQHNKCECRPKKD",
    "units text": "fold",
    "result number": 7
  }
]
